The origin of these recorded values is PubChem BioAssay (NCI).

system: RXF 393 renal; experiment: NCI tumour cell line growth inhibition, 48 h

{"COMPOUND": "CC(=O)c1ccc(N2CCN(C3=CC(=O)c4c(O)ccc(O)c4C3=O)CC2)cc1", "READING UNIT": "µM", "READOUT QUALIFIER": ">", "TGI": 100}
{"COMPOUND": "CN(c1ccc(C#N)c(Cl)c1)C1CCC(NC(=O)c2ccc(N3CCN(C4CN(c5ccc6c(c5)C(=O)N(C5CCC(=O)NC5=O)C6=O)C4)CC3)cc2)CC1 (stereo not given)", "READING UNIT": "µM", "READOUT QUALIFIER": ">", "TGI": 100}
{"COMPOUND": "CC(C)C(C/C=C1/CC(CO)(COC(=O)C2CCCCC2)OC1=O)C(C)C (stereo not given)", "READING UNIT": "µM", "READOUT QUALIFIER": "=", "TGI": 40.9}
{"COMPOUND": "S=C(N/N=C\\c1ccccn1)N(Cc1ccccn1)Cc1ccccn1", "READING UNIT": "µM", "READOUT QUALIFIER": "=", "TGI": 32.2}
{"COMPOUND": "Cc1ccc(S(=O)(=O)c2ccc([N+](=O)[O-])o2)cc1", "READING UNIT": "µM", "READOUT QUALIFIER": "=", "TGI": 3.33}
{"COMPOUND": "O=c1[nH]cnc2sc(=S)c3c(c12)CCC3", "READING UNIT": "µM", "READOUT QUALIFIER": "=", "TGI": 63.4}
{"COMPOUND": "N=C(N)SCCCN", "READING UNIT": "µM", "READOUT QUALIFIER": "=", "TGI": 26}
{"COMPOUND": "CCCCCCCCCCCCCP(=O)(NCC(N)=O)OCC (stereo not given)", "READING UNIT": "µM", "READOUT QUALIFIER": "=", "TGI": 37.7}
{"COMPOUND": "O=c1c(O)cccn1CCCN(CCCn1cccc(O)c1=O)CCn1cccc(O)c1=O", "READING UNIT": "µM", "READOUT QUALIFIER": "=", "TGI": 9.83}
{"COMPOUND": "CC/C=C\\C/C=C/C=C1/C(=O)C=C[C@@H]1C/C=C\\CCCC(=O)OC", "READING UNIT": "µM", "READOUT QUALIFIER": "=", "TGI": 3.84}

* * *

test system: ACHN renal; experiment: NCI tumour cell line growth inhibition, 48 h
Where a SMILES comes first, the peptide text is derived from it. Bridges are numbered along the chain shown (N, C = ends). The star is where a group is joined. Cbz = O=C(OCc1ccccc1)*
Each entry below carries its recorded TGI.

{"MOLECULE": "CC1=NN(C(=O)c2ccc(Cl)cc2)C(=O)/C1=C/c1ccc(Cl)cc1", "TGI": "> 100 µM"}
{"MOLECULE": "COc1ccc(Oc2ccccc2NC(=O)CNC(=O)c2cccc3ccccc23)cc1", "TGI": "> 25 µM"}
{"MOLECULE": "Cc1ccc(N=C2SC(c3ccc(C)cc3)(c3ccc(C)cc3)c3ccccc32)cc1", "TGI": "> 100 µM"}
{"MOLECULE": "COc1cccc(CC(C)=C(c2ccc(OCCCN(C)C)cc2)c2ccc(OCCCN(C)C)cc2)c1", "TGI": "0.991 µM"}
{"MOLECULE": "O=C(CCc1nc(=S)[nH][nH]1)Nc1cccc(C(F)(F)F)c1", "TGI": "> 100 µM"}
{"MOLECULE": "Cc1cc(S(=O)(=O)Nc2nc3ccccc3n2-c2ccccc2)c(S)cc1Cl", "TGI": "> 100 µM"}
{"MOLECULE": "CC(=O)NNc1nc(C)c(C(=O)/C=C/c2ccc(/C=C/C(=O)c3sc(NNC(C)=O)nc3C)cc2)s1", "TGI": "> 100 µM"}
{"MOLECULE": "COC(=O)/C(=C\\c1ccco1)P(=O)(OC)OC", "TGI": "> 100 µM"}
{"MOLECULE": "CCOC(=O)c1c(NCc2ccccc2)n(-c2ccccc2)c(=S)n(-c2ccccc2)c1=O", "TGI": "> 100 µM"}
{"MOLECULE": "CCOC(=O)C1=C(C)N2C(=NC3=C(CCC/C3=C\\c3ccc(Cl)cc3)C2c2ccc(Cl)cc2)S1 (stereo not given)", "TGI": "33.6 µM"}
{"MOLECULE": "CCN(CC)CCCC(C)Nc1c(Sc2cnc3cc(Cl)ccc3c2NC(C)CCCN(CC)CC)cnc2cc(Cl)ccc12 (stereo not given)", "TGI": "3.82 µM"}
{"MOLECULE": "COc1cc([C@H]2Oc3c(OC)cc(CCCO)cc3[C@@H]2CO)ccc1O", "TGI": "> 100 µM"}
{"MOLECULE": "Cc1nc2c(sc(=S)n2-c2ccccc2)c2nc3ccccc3n12", "TGI": "> 100 µM"}
{"MOLECULE": "COc1ccc(/C(=N/Nc2nc3ccccc3[nH]2)C(=O)O)cc1", "TGI": "> 100 µM"}
{"MOLECULE": "CCSc1nc(N)c(C#N)c(-c2ccco2)c1C#N", "TGI": "69.2 µM"}
{"MOLECULE": "COC1=CC(=O)c2c(O)c3c(c(O)c2C1=O)C[C@](C)(O)C[C@@H]3O", "TGI": "16 µM"}
{"MOLECULE": "NNc1c2ccccc2nc2ccccc12", "TGI": "33.9 µM"}
{"MOLECULE": "Cc1c2ccncc2c(C)c2c1c1cc(CO)ccc1n2C", "TGI": "9.39 µM"}
{"MOLECULE": "Oc1ccc(Cl)cc1C1=N/C(=N\\C/N=C2\\N=C(c3cc(Cl)ccc3O)CC(c3ccccc3)N2)NC(c2ccccc2)C1 (stereo not given)", "TGI": "> 100 µM"}
{"MOLECULE": "O=C1CSC(c2ccccc2O)N1c1nnc(Cn2ccnc2)o1 (stereo not given)", "TGI": "> 100 µM"}
{"MOLECULE": "CC(=O)OC(C)C(OC(C)=O)C(OC(C)=O)C(/C=C/C1CC=CC(=O)O1)OC(C)=O (stereo not given)", "TGI": "> 100 µM"}
{"MOLECULE": "CC(=O)CC(C)(C)NC(=O)[C@@]1(O)CC[C@H]2[C@@H]3CCC4=CC(=O)CC[C@@H]4[C@H]3CC[C@@]21C", "TGI": "> 100 µM"}
{"MOLECULE": "O=c1c(O)cccn1CCCN(CCCn1cccc(O)c1=O)CCn1cccc(O)c1=O", "TGI": "> 100 µM"}
{"MOLECULE": "CNC(=S)N/N=C(\\C)c1nc2ncccc2[nH]1", "TGI": "> 100 µM"}
{"MOLECULE": "CC(C)(C)c1cc(C(=O)/C=C/c2ccn[nH]2)cc(C(C)(C)C)c1O", "TGI": "3.03 µM"}
{"MOLECULE": "CCOC(=O)c1c(N2CCOCC2)[nH]c(=O)c(C(c2cccs2)c2c(O)c(C(=O)OCC)c(N3CCOCC3)[nH]c2=O)c1O", "TGI": "> 100 µM"}
{"MOLECULE": "COC(=O)/C=C/c1cc(OC)c2oc(-c3ccc(OC)c(OC)c3)c(C(=O)OC)c2c1", "TGI": "> 100 µM"}
{"MOLECULE": "COC(=O)C1=C(C)N(NC(=O)c2ccccc2)C2(O)CCCC(=O)C12C (stereo not given)", "TGI": "> 100 µM"}
{"MOLECULE": "CCCCCCCCCCCCCP(=O)(NCC(N)=O)OCC (stereo not given)", "TGI": "47.9 µM"}
{"MOLECULE": "COC(=O)C1CCCCNC(=O)CCC(NC(=O)OCc2ccccc2)C(=O)N1 (stereo not drawn) (Cbz-Glu-Lys-OMe; lactam 1-2; configuration not given here)", "TGI": "> 100 µM"}
{"MOLECULE": "O=S(=O)(O)c1cc(O)c2c(O)c(N=Nc3cccc4ccccc34)c(S(=O)(=O)O)cc2c1", "TGI": "> 100 µM"}
{"MOLECULE": "COC(=O)/C(C#N)=C1\\CCc2ccccc21", "TGI": "> 100 µM"}
{"MOLECULE": "C=CCC1(CC)C(=O)NC(=O)NC1=O", "TGI": "> 100 µM"}
{"MOLECULE": "O=C1CCC(N2C(=O)c3cccc(NCCCC4CCN(CCNC(=O)c5cc6c(o5)C(=O)c5ccccc5C6=O)CC4)c3C2=O)C(=O)N1 (stereo not given)", "TGI": "2.56 µM"}
{"MOLECULE": "COc1ccc2c(c1)/C(=C\\c1c[nH]c3ccc(OC)cc13)C(=O)N2", "TGI": "12.4 µM"}
{"MOLECULE": "Cc1c(C#N)c2nnn(-c3ccccc3)c(=O)n2c1-c1ccccc1", "TGI": "> 100 µM"}
{"MOLECULE": "CN1CCN(c2cc3nc4ccccc4n(-c4ccc(Cl)cc4)c-3cc2=N)CC1", "TGI": "> 100 µM"}
{"MOLECULE": "CC1(C)CC2=C(Sc3ccccc3N2)C(=O)C1C(=O)C(=O)Nc1cc(Cl)ccc1Cl (stereo not given)", "TGI": "> 100 µM"}
{"MOLECULE": "COC(=O)C#CCC1CCCC1C1SCCS1 (stereo not given)", "TGI": "> 100 µM"}
{"MOLECULE": "Cc1cccc2c(Nc3ccc(NS(C)(=O)=O)cc3)c3ccc([N+](=O)[O-])cc3nc12", "TGI": "4.13 µM"}
